system: P. aeruginosa PA14; test: IC50 of compounds in conjunction with colistin relative to P. aeruginosa (growth, absorbance at 600 nm); format: cell-based; details: Pseudomonas aeruginosa, PA14, 17 h
quantity: IC50 (µM)
Record the value in µM, omitting the unit from your answer.

**Query** For the compound shown here, C#Cc1ccc(OCCCCCC(=O)Nc2ccnc(C(F)(F)F)c2)cc1 [Compound S20] , give the reported IC50.
**Result** 15.5

* * *

test system: P. aeruginosa PA14; test: IC50 of compounds in conjunction with colistin relative to P. aeruginosa (growth, absorbance at 600 nm); format: cell-based; conditions: Pseudomonas aeruginosa; P. aeruginosa PA14 in LB; colistin held constant at sublethal concentration (0.25 to 0.375 pg/mL); 3-fold dilution starting with a 250 concentration; 17 h aerobic growth at 37° C.; absorbance at 600 nm; read-out: IC50
quantity: pIC50
Worth noting: pIC50 values are minus log10 of concentrations stated in mol/L.

mol	target of assay	quantity	value
O=C(CCCCCN1CCN(c2ccncc2)CC1)Nc1ccnc(C(F)(F)F)c1	P. aeruginosa PA14	pIC50	4.12
O=C(CCCCCN1CCN(c2ccccc2)CC1)Nc1ccnc(C(F)(F)F)c1	P. aeruginosa PA14	pIC50	4.30
COC(=O)c1ccc(OCCCCCC(=O)Nc2ccnc(C(F)(F)F)c2)cc1	P. aeruginosa PA14	pIC50	4.06

Consider the additional molecule presented here.
**Query** Bench note: what pIC50 did O=C(CCCCCOc1ccc2ccccc2c1)Nc1ccnc(C(F)(F)F)c1 show?
**Result** 5.59
